# Tested target: recombinant hGYS1/GN1 protein (Homo sapiens, UniProt P13807)
# Sequence (P13807 1-737): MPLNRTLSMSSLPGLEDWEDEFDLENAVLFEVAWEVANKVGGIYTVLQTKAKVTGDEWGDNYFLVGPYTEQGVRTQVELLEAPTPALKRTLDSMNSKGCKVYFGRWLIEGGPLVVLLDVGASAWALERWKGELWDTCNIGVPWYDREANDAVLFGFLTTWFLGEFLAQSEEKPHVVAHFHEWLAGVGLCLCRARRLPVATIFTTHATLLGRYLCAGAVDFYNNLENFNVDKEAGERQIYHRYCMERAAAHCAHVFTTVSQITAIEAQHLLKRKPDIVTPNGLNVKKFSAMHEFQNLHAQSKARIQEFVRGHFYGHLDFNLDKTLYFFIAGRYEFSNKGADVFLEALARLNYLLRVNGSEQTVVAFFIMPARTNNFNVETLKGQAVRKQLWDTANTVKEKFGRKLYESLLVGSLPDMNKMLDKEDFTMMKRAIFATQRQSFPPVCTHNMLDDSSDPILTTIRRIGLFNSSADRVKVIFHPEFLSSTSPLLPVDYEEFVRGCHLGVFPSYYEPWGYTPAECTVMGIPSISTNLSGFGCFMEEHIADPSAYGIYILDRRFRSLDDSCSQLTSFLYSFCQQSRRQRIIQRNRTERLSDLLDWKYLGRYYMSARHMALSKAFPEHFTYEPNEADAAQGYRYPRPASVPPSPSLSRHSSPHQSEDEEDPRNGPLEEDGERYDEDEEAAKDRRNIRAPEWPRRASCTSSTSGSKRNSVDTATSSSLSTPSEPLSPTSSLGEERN
# Sequence (P46976 1-350 partner): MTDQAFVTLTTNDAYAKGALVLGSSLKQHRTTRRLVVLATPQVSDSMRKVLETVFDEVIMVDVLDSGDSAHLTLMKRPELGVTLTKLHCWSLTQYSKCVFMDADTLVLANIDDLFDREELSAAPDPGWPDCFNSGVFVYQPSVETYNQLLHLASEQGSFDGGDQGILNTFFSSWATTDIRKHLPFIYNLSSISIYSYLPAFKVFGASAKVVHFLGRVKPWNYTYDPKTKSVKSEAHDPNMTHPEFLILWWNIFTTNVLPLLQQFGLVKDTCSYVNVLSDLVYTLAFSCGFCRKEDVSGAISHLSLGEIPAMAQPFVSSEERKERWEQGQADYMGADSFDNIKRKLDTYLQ
# Protocol: GYS1 coupled enzyme assay (PK/LDH, NADH absorbance at 340 nm)
# Particulars: geometric mean of at least 2 assay runs on separate days; hGYS1/GN1 50 nM, Glucose-6-Phosphate 1 mM, UDP-Glucose 0.8 mM
# From the text: The GYS1 coupled enzyme assay is a kinetic biochemical assay that indirectly quantifies the rate of glycogen synthesis by coupling the conversion of GYS1 substrate UDP-glucose into UDP with downstream enzymatic reactions. UDP is released from UDP-glucose as glucose monomers are linked into the growing glycogen strand by GYS1. […] Oxidation of NADH to NAD+ can be measured continuously with a plate reader by quantifying the decrease in NADH absorbance at 340 nm over time. […]
// values below are reported pIC50
The value called pIC50 is obtained by taking minus log10 of the concentration in mol/L.

Fill in: recombinant hGYS1/GN1 protein (Homo sapiens, UniProt P13807) pIC50 for O=C(N[C@@H](c1ccccc1)c1ccc(C2CC2)c(F)n1)[C@@H]1C[C@@H](F)CN1C(=O)COCCOCCOCCOCCOCC(=O)N1C[C@H](F)C[C@H]1C(=O)N[C@@H](c1ccccc1)c1ccc(C2CC2)c(F)n1 = 7.84

Fill in: recombinant hGYS1/GN1 protein (Homo sapiens, UniProt P13807) pIC50 for O=C(N[C@@H](c1ccccc1)c1ccc(C2CC2)c(F)n1)[C@@H]1C[C@@H](F)CN1C(=O)COCCOCCOCC(=O)N1C[C@H](F)C[C@H]1C(=O)N[C@@H](c1ccccc1)c1ccc(C2CC2)c(F)n1 = 7.09
